The reported numbers originate from PubChem BioAssay.

We begin with a simple list: items and their reported composite z-score.
- EXPERIMENTAL TARGET: Concanavalin-A (Canavalia ensiformis) (UniProt P02866)
- Sequence (P02866 whole entry, looked up): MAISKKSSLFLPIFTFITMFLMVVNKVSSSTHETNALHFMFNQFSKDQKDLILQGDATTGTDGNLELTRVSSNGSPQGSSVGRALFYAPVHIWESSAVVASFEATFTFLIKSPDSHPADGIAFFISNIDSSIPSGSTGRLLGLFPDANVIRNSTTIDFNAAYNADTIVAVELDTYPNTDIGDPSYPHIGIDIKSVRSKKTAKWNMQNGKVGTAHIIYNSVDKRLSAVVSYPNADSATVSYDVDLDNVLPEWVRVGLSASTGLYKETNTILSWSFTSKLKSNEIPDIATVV
- ASSAY TEXT: ConA small-molecule binders, primary screen, artefact control for SMM control protein annotation, biochemical, small-molecule microarray, Alexa647 label, 635 nm (AID 1127);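 note: z combines 667 nm emission intensity with signal-to-noise across three replicate slides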
- CONDITION CONTEXT: ConA-A647 binding fluorescence, higher = more signal
I'd appreciate a reply containing only the number, no unit.

- CCN1C(=O)[C@H]2[C@H]3[C@H](O)[C@H](O)CC(=NNC(=O)OCc4ccccc4)[C@H]3CC[C@H]2C1=O: 0.514
- COc1ccc(COC(=O)NN=C2C[C@@H](O)[C@@H](O)[C@@H]3[C@@H]4C(=O)N(C[C@@H]5CCCO5)C(=O)[C@@H]4CC[C@@H]23)cc1: 0.327
- CCN1C(=O)[C@H]2[C@H]3[C@H](O)[C@H](O)CC(=NOCC=C(C)CCC=C(C)C)[C@@H]3CC[C@H]2C1=O: 0.13
- COC(=O)[C@H](C)NC(=O)CCC1CC(OC(=O)NCCc2ccc(F)cc2)CC2(CCCC(COC(=O)NCCc3ccccc3OC)O2)O1 (some centres not stated): 0.924
- COc1ccc(COC(=O)NN=C2C[C@@H](O)[C@@H](O)[C@@H]3[C@@H]4C(=O)N([C@@H](C)c5ccccc5)C(=O)[C@@H]4CC[C@H]23)cc1: 0.0744

Query string: Give composite z-score (Concanavalin-A (Canavalia ensiformis) (UniProt P02866)) of the following compound: CCOC(=O)[C@H](Cc1ccccc1)NC(=O)CCC1CC(OC(=O)NCc2cccc3ccccc23)CC2(CCCC(COC(=O)NCCc3ccc(Cl)cc3)O2)O1 (some centres not stated)
Result string: 1.03

Query string: Thanks! And O=C1C[C@@H](O)[C@@H](O)[C@@H]2[C@@H]3C(=O)N(c4ccc(F)cc4F)C(=O)[C@@H]3CC[C@H]12 ?
Result string: 0.44

###

We begin with a simple list: items and their reported composite z-score.
- ASSAY TEXT: small-molecule microarray binders of probe aNog, primary screen, biochemical, biotinylated probe, 635/667 nm fluorescence (AID 1115);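 note: probe is biotinylated aNog protein used at 0.15 µg/mL for 1 h at 4 C; z-score combines 667 nm fluorescence of each spot with its signal to noise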
- CONDITION CONTEXT: higher = more signal
I'd appreciate a reply containing only the number, no unit.

• CCOC(=O)CCN1C(=O)[C@H]2[C@H]3[C@H](O)[C@H](O)CC(=NOCC=C(C)CCC=C(C)C)[C@@H]3CC[C@H]2C1=O = -0.0827
• C[C@@H]1CC[C@H]2C(=O)N3[C@@H](CC[C@@H](C)[C@@H]3c3ccc(Br)cc3)C(=O)N2[C@H]1c1ccc(Br)cc1 = -0.113

Consider the record given below.
Query string: # input compound: COc1ccc(COC(=O)NN=C2C[C@@H](O)[C@@H](O)[C@@H]3[C@@H]4C(=O)N(c5cccc(Oc6ccccc6)c5)C(=O)[C@@H]4CC[C@H]23)cc1 ; wanted: its composite z-score
Result string: -0.336

###

- ASSAY TEXT: basal RPMI8226 viability, no added stimulus, profiling panel, cell-based, calcein-AM fluorescence, 48 h, PK04 Diversity Set (AID 1166);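 note: cells grown under basal conditions without added stimulus; test concentration not given here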
- CONDITION CONTEXT: RPMI8226 myeloma viability, higher = more signal
We begin with a simple list: items and their reported z-score.
I'd appreciate a reply containing only the number, no unit.

Please review the entries below; each comes with its answer.
• CCOC(=O)[C@H](CC(C)C)NC(=O)CCC1CC(OC(=O)NCc2ccc3c(c2)OCO3)CC2(CCCC(COC(=O)NCCOc3ccccc3)O2)O1 (stereo partly specified) = -1.43
• COC(=O)CC=C[C@@H](C)[C@@H](C=NOC(C)CN1CCCCc2nc(C)c(C)cc21)OC (stereo partly specified) = -0.444
• CC(=O)OC[C@H]1O[C@H](CC=NOC[C@@H](O)[C@H]2O[C@@H]3OC(C)(C)O[C@@H]3[C@H]2O)C=C[C@@H]1OC(C)=O = -0.594
• CC(CCC(=O)OC[C@H]1O[C@H](C#Cc2ccccc2)C=C[C@@H]1Oc1ccc(C)cc1)=NOC(C)CN1CCCCc2nc(C)c(C)cc21 (stereo partly specified) = -1.73
• O=C1[C@H]2[C@H]3[C@H](O)[C@H](O)CC(=NOCc4ccccc4)[C@H]3CC[C@H]2C(=O)N1C1CCCCC1 = -0.498

Query string: # input compound: C[C@@H](c1ccccc1)N1C(=O)[C@H]2[C@H]3[C@H](O)[C@H](O)CC(=NOC[C@@H](O)COCc4ccco4)[C@H]3CC[C@H]2C1=O ; wanted: its z-score
Result string: -1.83

Query string: Thanks! And CC(C)[C@@H](OCc1ccccc1)[C@H](C)C=NOC[C@@H](O)[C@H]1O[C@@H]2OC(C)(C)O[C@@H]2[C@H]1O ?
Result string: 0.322

Query string: Thanks! And CCOC(=O)[C@H](CC(C)C)NC(=O)CCC1CC(OC(=O)NCc2ccc3c(c2)OCO3)CC2(CCCC(COC(=O)NCCC(C)C)O2)O1 (stereo partly specified) ?
Result string: 0.403

Query string: Thanks! And CCOC(=O)[C@H](Cc1ccccc1)NC(=O)CCC1CC(OC(=O)NCCc2ccc(F)cc2)CC2(CCCC(COC(=O)NCCC(C)C)O2)O1 (stereo partly specified) ?
Result string: -0.364

Query string: Thanks! And CC(C)CN1CCc2nc(-c3ccccc3)c3c(c2C1)CO[C@@H](C)C3 ?
Result string: -0.409

Query string: Thanks! And COc1ccc2c(c1)O[C@@H](c1cccc(C(F)(F)F)c1)[C@H](O)C2=O ?
Result string: 1.29

Query string: Thanks! And CC(C)CON=C1[C@H]2CCn3c(=O)n(C)c(=O)n3[C@H]2[C@H](O)[C@@H]2O[C@H]12 ?
Result string: -0.441

Query string: Thanks! And COC(=O)[C@@H]1CC[C@H](C)[C@@H](c2ccc(Br)cc2)N1C(=O)C(F)(F)F ?
Result string: 0.468

Query string: Thanks! And COc1ccc(O[C@H]2C=C[C@@H](C#Cc3ccccc3)O[C@@H]2CO)cc1 ?
Result string: -3.67

Query string: Thanks! And O=C1[C@H]2CCn3c(=O)n(Cc4cc5c(cc4Cl)OCO5)c(=O)n3[C@H]2[C@H](O)[C@@H]2O[C@H]12 ?
Result string: -0.518

Query string: Thanks! And C=C(C)C(=O)OC[C@H]1CN2[C@@H](CC[C@@H](C)[C@@H]2c2ccc(Br)cc2)C(=O)O1 ?
Result string: -1.34

###

- ASSAY TEXT: CREB reporter modulators under forskolin, primary screen, cell-based, PC12, CRE-LacZ reporter, forskolin-stimulated (AID 1146);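 note: PC12 cells with 6xCRE LacZ reporter stimulated by forskolin 10 µM; beta-galactosidase reporter signal reflecting CREB driven transcription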
- CONDITION CONTEXT: luminescence, 4.5 h, higher = more signal, called active from +8 up or from −8 down
Active and inactive are the calls of the source.
OBSERVATION TYPE: z-score

Please review the entries below; each comes with its answer.
- CC(=O)OC[C@H]1O[C@@H](ON=C(C)CCN2CCCCc3nc(C)c(C)cc32)[C@H](OC(C)=O)[C@@H](OC(C)=O)[C@@H]1OC(C)=O: -0.494 (inactive)
- COCCNC(=O)OCC1CCCC2(CC(OC(=O)NCc3cccc4ccccc34)CC(CCC(=O)N[C@@H](C)C(=O)OC)O2)O1 (stereo partly drawn): 1.47 (inactive)
- COC(=O)[C@@H]1CC[C@H](C)[C@@H](c2ccc(Br)cc2)N1C(=O)C(F)(F)F: -0.344 (inactive)

Consider the record given below.
Query string: # input compound: CCOC(=O)CCN1C(=O)[C@H]2[C@H]3[C@H](O)[C@H](O)CC(=NOCC(C)C)[C@@H]3CC[C@H]2C1=O ; wanted: its z-score
Result string: -0.209 (inactive)

###

- ASSAY TEXT: modulators of HCV replicon luciferase signal, primary screen, HCV replication inhibitor project, Huh7 cells, luciferase reporter (AID 1109);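 note: huh7 hepatoma cells harbouring a luciferase neomycin HCV replicon reporter; luciferase luminescence as measure of HCV replicon replication; test concentration not given here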
- CONDITION CONTEXT: 48 h, higher = more signal
OBSERVATION TYPE: z-score

* COc1ccc(OC[C@H]2CN3[C@@H](CC[C@@H](C)[C@@H]3c3ccc(Br)cc3)C(=O)O2)cc1 | -0.757
* C[C@]12CCC3c4ccc(OCC5CO5)cc4CCC3C1CC[C@@H]2O (some centres not stated) | -2.71
* CO[C@H]1COC(=O)CC=C[C@H](C)[C@H](OC)COC(=O)[C@@H](C)NC(=O)CC=C[C@@H]1C | -2.14
* CC(C)(C)N1C(=O)[C@H]2[C@H]3[C@H](O)[C@H](O)CC(=NOC[C@@H](O)COCc4ccco4)[C@@H]3CC[C@H]2C1=O | -0.287
* CCCNC(=O)OC[C@H]1O[C@H](CCON=C[C@@H](NS(=O)(=O)c2ccc(C)cc2)[C@H](C)C=CCC(=O)OC)C=C[C@@H]1Oc1ccc(OC)cc1 | -1.65
* CCOC(=O)CCN1C(=O)[C@H]2[C@H]3[C@H](O)[C@H](O)CC(=NNC(=O)OCC)[C@H]3CC[C@H]2C1=O | -2.37

Consider the record given below.
Query string: # input compound: CO[C@H]1COC(=O)[C@H](CCSC)NC(=O)CC=C[C@@H](C)[C@H](OC)COC(=O)[C@@H](OCc2ccccc2)C=C[C@@H]1C ; wanted: its z-score
Result string: -1.4
